# Target System: Tyrosine-protein phosphatase non-receptor type 1 (Homo sapiens)
# Sequence (P18031 whole entry): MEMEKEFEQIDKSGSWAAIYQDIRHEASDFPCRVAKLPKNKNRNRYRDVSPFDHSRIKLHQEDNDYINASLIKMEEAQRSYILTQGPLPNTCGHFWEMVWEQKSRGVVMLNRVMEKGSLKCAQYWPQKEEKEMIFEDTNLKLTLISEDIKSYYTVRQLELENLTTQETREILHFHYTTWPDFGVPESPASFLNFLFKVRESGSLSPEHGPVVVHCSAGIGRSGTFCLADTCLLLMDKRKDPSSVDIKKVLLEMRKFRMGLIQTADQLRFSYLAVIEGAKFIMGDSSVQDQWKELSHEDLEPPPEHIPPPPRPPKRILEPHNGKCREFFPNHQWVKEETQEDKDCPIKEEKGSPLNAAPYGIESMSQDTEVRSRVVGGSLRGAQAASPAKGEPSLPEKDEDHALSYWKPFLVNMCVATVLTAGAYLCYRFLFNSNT
Property: IC50; scope: individual compounds
Enter your answer as a number in µM; do not include the unit.

[
  {
    "Smiles Repr": "O=C(O)c1ccc(CN2C(=O)/C(=C/c3cccc(Oc4ccccc4)c3)S/C2=N\\c2ccccc2)cc1",
    "IC50 / µM": 1.9
  }
]

Sample `COc1ccc(/C=C2\S/C(=N\c3ccccc3)N(Cc3ccc(C(=O)O)cc3)C2=O)cc1O` — what was its IC50?
32.1

Sample `O=C(O)c1ccc(CN2C(=O)/C(=C/c3cccc(O)c3)S/C2=N\c2ccccc2)cc1` — what was its IC50?
35.4

----------
Property: pIC50; scope: individual molecules
# Target System: Low molecular weight phosphotyrosine protein phosphatase (Saccharomyces cerevisiae S288c, UniProt P40347)
# Sequence (P40347 whole entry): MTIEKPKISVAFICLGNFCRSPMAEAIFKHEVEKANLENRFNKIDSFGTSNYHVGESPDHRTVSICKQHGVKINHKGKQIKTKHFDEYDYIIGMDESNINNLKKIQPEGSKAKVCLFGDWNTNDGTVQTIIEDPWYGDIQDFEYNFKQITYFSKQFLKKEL
Just the number, please; pIC50 means minus log10 of the concentration in mol/L.

Use the examples below as a reference point.
[
  {
    "Smiles Repr": "O=C(O)c1ccc(CN2C(=O)/C(=C/c3ccc(Oc4ccccc4)cc3)S/C2=N\\c2ccccc2)cc1",
    "Property Measured": "pIC50",
    "Measured Number": 5.20
  },
  {
    "Smiles Repr": "O=C(O)c1ccc(CN2C(=O)/C(=C/c3ccc(OCc4ccccc4)cc3)S/C2=N\\c2ccccc2)cc1",
    "Property Measured": "pIC50",
    "Measured Number": 4.80
  },
  {
    "Smiles Repr": "O=C(O)c1ccc(CN2C(=O)/C(=C/c3ccc(O)cc3)S/C2=N\\c2ccccc2)cc1",
    "Property Measured": "pIC50",
    "Measured Number": 3.71
  }
]

API: the following record is the query input.
Sample `O=C(O)c1ccc(CN2C(=O)/C(=C/c3ccc(O)c(C(=O)O)c3)S/C2=N\c2ccccc2)cc1` — what was its pIC50?
3.46

Data origin: ChEMBL document CHEMBL1153913
